Test system: SK-MEL-28
MEASUREMENT NOTES: Growth inhibition of human SK-MEL-28 cells assessed as cell growth at 10 uM incubated for 48 hrs by sulforhodamine B assay relative to control
Assay type: functional
SETUP CONDITIONS: SK-MEL-28, 48 h, read-out: Activity
PROPERTY: growth at 10 µM (%)
// return numeric value only (unit: %, not printed)

Worked cases, growth at 10 µM given:
>  <SMILES REPR>
CC(C)[C@@]12C[C@@H](NC(=O)CO)[C@@](C)(O1)[C@@H]1CC[C@@H](C)[C@H]1[C@@H]2OC(=O)c1ccc2ccccc2c1

>  <ENDPOINT RESULT>
93.2

$$$$
>  <SMILES REPR>
CC(C)[C@@]12C[C@@H](NC(=O)CO)[C@@](C)(O1)[C@@H]1CC[C@@H](C)[C@H]1[C@@H]2OC(=O)/C=C/C1CCCCC1

>  <ENDPOINT RESULT>
98.9

$$$$
>  <SMILES REPR>
CC(C)[C@@]12C[C@@H](NC(=O)CO)[C@@](C)(O1)[C@@H]1CC[C@@H](C)[C@H]1[C@@H]2OC(=O)/C=C/c1ccccc1

>  <ENDPOINT RESULT>
112

$$$$
>  <SMILES REPR>
C/C(=C\C(=O)O[C@H]1[C@@H]2[C@H](C)CC[C@H]2[C@]2(C)O[C@@]1(C(C)C)C[C@H]2NC(=O)CO)c1ccccc1

>  <ENDPOINT RESULT>
118

$$$$

Short answer for `CC(C)[C@@]12C[C@@H](NC(=O)CF)[C@@](C)(O1)[C@@H]1CC[C@@H](C)[C@H]1[C@@H]2OC(=O)/C=C/c1ccccc1` : growth at 10 µM was 110

Each recorded value in this set is attributed to ChEMBL document CHEMBL3804761.
